System: wheat (Triticum aestivum)
EXPERIMENT: Test A postemergence, wheat
Assay type: in vivo
STATED_CONDITIONS: 125 g ai/ha, visual injury, 0 to 100 scale (0 no effect, 100 complete control), approximately 10 days
ASSAY_READOUT: Plant response rating, Wheat
The response must contain the number and no unit.

// lookup Plant response rating, Wheat for CN1CC(c2cccc(Oc3ncc(F)cc3F)c2)C(C(=O)Nc2ccc(F)c(F)c2F)C1=O (single isomer, unassigned)
20

---

Test system: corn (Zea mays)
EXPERIMENT: Test A postemergence, corn
Type: in vivo
STATED_CONDITIONS: 125 g ai/ha, visual injury, 0 to 100 scale (0 no effect, 100 complete control), approximately 10 days
ASSAY_READOUT: Plant response rating, Corn
Lab note: jot the number down without any unit.

> print(dat)
                                   molecule  numeric.result
1  O=C1NCC(c2cccc(Oc3ccc(F)cn3)c2)C1C(=O)Nc1ccccc1F (single isomer, unassigned) [Compound 49]              30
2  O=C1NCC(c2cccc(Oc3ncc(F)cn3)c2)C1C(=O)Nc1cccc(F)c1F (single isomer, unassigned) [Compound 37]              70
3  O=C1NCC(c2cccc(OCC3OCCO3)c2)C1C(=O)Nc1ccccc1Cl (stereo not shown) [Compound 6]               0

Consider the additional molecule presented here.
# input molecule: CC1(COc2cccc(C3CNC(=O)C3C(=O)Nc3ccccc3Cl)c2)COC1 (stereo not shown) [Compound 16] ; wanted: its Plant response rating, Corn
0

---

Tested on: ryegrass, Italian (Lolium multiflorum)
EXPERIMENT: Test A postemergence, Italian ryegrass
Type: in vivo
STATED_CONDITIONS: 125 g ai/ha, visual injury, 0 to 100 scale (0 no effect, 100 complete control), approximately 10 days
ASSAY_READOUT: Plant response rating, Ryegrass, Italian

Some entries whose results are on file:
> print(dat)
                                   compound  result
1  O=C1NCC(c2cccc(Cn3ccc(C(F)(F)F)n3)c2)C1C(=O)Nc1ccccc1F (stereo not shown)       0
2  O=C1NCC(c2ccccc2Cn2ccc(C(F)(F)F)n2)C1C(=O)Nc1ccc(F)c(F)c1F (stereo not shown)       0
3  O=C1NCC(c2cccc(OCC3OCCO3)c2)C1C(=O)Nc1ccccc1C(F)(F)F (stereo not shown)      20

Find Plant response rating, Ryegrass, Italian (ryegrass, Italian (Lolium multiflorum)) for the entry O=C1NCC(c2cccc(OCc3ccccc3)c2)C1C(=O)Nc1ccccc1Cl (stereo not shown)
0

---

Tested on: foxtail, giant (Setaria faberii)
EXPERIMENT: Test A preemergence, giant foxtail
Type: in vivo
STATED_CONDITIONS: 125 g ai/ha, 0 to 100 scale (0 no effect, 100 complete control)
ASSAY_READOUT: Plant response rating, Foxtail, Giant
API note: the answer field is a bare number with no unit suffix.

Reference set (2 entries):
> print(dat)
                                   molecule                   measured.target                          assay.readout  numeric.result
1  O=C1NCC(c2cccc(COc3ccccc3)c2)C1C(=O)Nc1ccccc1F (stereo not shown)  foxtail, giant (Setaria faberii)  Plant response rating, Foxtail, Giant              30
2  O=C1NCC(c2ccccc2Cn2ccc(C(F)(F)F)n2)C1C(=O)Nc1ccc(F)c(F)c1F (stereo not shown)  foxtail, giant (Setaria faberii)  Plant response rating, Foxtail, Giant              60

Suppose we examine the molecule CN1CC(c2cccc(Oc3ccc(C(F)(F)F)cn3)c2)C(C(=O)Nc2ccccc2F)C1=O (single isomer, unassigned) ; what Plant response rating, Foxtail, Giant value has been reported?
90

What does the record list as Plant response rating, Foxtail, Giant for O=C1NCC(c2cccc(Oc3ccccn3)c2)C1C(=O)Nc1cccc(F)c1F (stereo not shown) ?
60

May I ask what Plant response rating, Foxtail, Giant has been recorded for O=C1NCC(c2cccc(OCC3CC3)c2)C1C(=O)Nc1ccccc1F (stereo not shown) ?
80

Suppose we examine the molecule O=C1NCC(c2cccc(Oc3ncc(F)cn3)c2)C1C(=O)Nc1cccc(F)c1F (single isomer, unassigned) ; what Plant response rating, Foxtail, Giant value has been reported?
90

Quick check: Plant response rating, Foxtail, Giant of O=C1NCC(c2cccc(Oc3ccccn3)c2)C1C(=O)Nc1ccccc1Cl (stereo not shown) ?
0

Consider the molecule shown here: O=C1NCC(c2cccc(Oc3ccccn3)c2)C1C(=O)Nc1ccccc1F (stereo not shown) What is its recorded Plant response rating, Foxtail, Giant?
70

So what's the measured Plant response rating, Foxtail, Giant for this one? CN1CC(c2cccc(Oc3ncc(F)cc3F)c2)C(C(=O)Nc2ccc(F)c(F)c2F)C1=O (single isomer, unassigned)
100

So what does the record say about Plant response rating, Foxtail, Giant for O=C1NCC(c2cccc(OCC3OCCO3)c2)C1C(=O)Nc1ccccc1C(F)(F)F (stereo not shown) ?
30

Given the entry CN1CC(c2cccc(Oc3ncc(F)cc3F)c2)C(C(=O)Nc2cccc(F)c2F)C1=O (single isomer, unassigned) , report its measured Plant response rating, Foxtail, Giant.
90

What does the data say about its Plant response rating, Foxtail, Giant? Entry: CN1CC(c2cccc(OC(F)(F)C(F)OC(F)(F)F)c2)C(C(=O)Nc2ccccc2F)C1=O (stereo not shown)
80

Bench note: what Plant response rating, Foxtail, Giant did O=C1NCC(c2cccc(Cn3ccc(C(F)(F)F)n3)c2)C1C(=O)Nc1cccc(F)c1F (stereo not shown) show?
50

Which value of Plant response rating, Foxtail, Giant has been reported for O=C1NCC(c2cccc(OCc3ccco3)c2)C1C(=O)Nc1ccccc1F (stereo not shown) in the records?
0

Could you tell me which Plant response rating, Foxtail, Giant is on file for O=C1NCC(c2cccc(Cn3cccn3)c2)C1C(=O)Nc1ccc(F)cc1F (stereo not shown) ?
0

Can you share its Plant response rating, Foxtail, Giant? I mean this molecule: O=C1NCC(c2cccc(CN3CCOCC3)c2)C1C(=O)Nc1cccc(F)c1F (single isomer, unassigned)
0

---

Entries and their measured Plant response rating, Barnyardgrass follow.
Test system: barnyardgrass (Echinochloa crus-galli)
EXPERIMENT: Test A preemergence, barnyardgrass
Format: in vivo
STATED_CONDITIONS: 125 g ai/ha, 0 to 100 scale (0 no effect, 100 complete control)
Answer with a bare number; do not write a unit.

Recorded Plant response rating, Barnyardgrass, per entry:
> print(dat)
                                   compound                         assay.readout  numeric.result
1  O=C1NCC(c2cccc(Cn3ccc(C(F)(F)F)n3)c2)C1C(=O)Nc1ccc(F)cc1F (stereo not shown)  Plant response rating, Barnyardgrass               0
2  CN1CC(c2cccc(Oc3ccc(F)cn3)c2)C(C(=O)Nc2cccc(F)c2F)C1=O (single isomer, unassigned)  Plant response rating, Barnyardgrass              90
3  CN1CC(c2cccc(Oc3ccc(F)cn3)c2)C(C(=O)Nc2cccc(C#N)c2F)C1=O (single isomer, unassigned)  Plant response rating, Barnyardgrass              30

Consider the additional compound presented here.
Consider the compound shown here: O=C1NCC(c2cccc(Cn3cncn3)c2)C1C(=O)Nc1ccccc1F (stereo not shown) What is its recorded Plant response rating, Barnyardgrass?
0

---

Tested on: kochia (Kochia scoparia)
EXPERIMENT: Test A preemergence, kochia
Type: in vivo
STATED_CONDITIONS: 125 g ai/ha, 0 to 100 scale (0 no effect, 100 complete control)
Listing of entries alongside the reported Plant response rating, Kochia.

Reference set (4 entries):
> print(dat)
                                   molecule  result
1  CN1CC(c2cccc(Oc3ccc(F)cn3)c2)C(C(=O)Nc2cccc(C#N)c2F)C1=O (single isomer, unassigned)      30
2  O=C1NCC(c2cccc(Cn3cccn3)c2)C1C(=O)Nc1ccc(F)c(F)c1F (centres unmarked)       0
3  O=C1NCC(c2cccc(OCc3ccco3)c2)C1C(=O)Nc1ccccc1Cl (centres unmarked)       0
4  O=C1NCC(c2cccc(OCc3ccccc3)c2)C1C(=O)Nc1ccccc1Cl (centres unmarked)       0

Request the reported Plant response rating, Kochia associated with O=C1NCC(c2cccc(Cn3cccn3)c2)C1C(=O)Nc1ccccc1Cl (centres unmarked)
0

---

System: barnyardgrass (Echinochloa crus-galli)
EXPERIMENT: Test A postemergence, barnyardgrass
Assay type: in vivo
STATED_CONDITIONS: 500 g ai/ha, visual injury, 0 to 100 scale (0 no effect, 100 complete control), approximately 10 days
Class (required): determined from Plant response rating, Barnyardgrass; valid ranges are Low (below 50), Medium (50 to below 70), High (70 or more)

> print(dat)
                                   compound  assigned.category
1  O=C1NCC(c2cccc(Oc3ccc(F)cn3)c2)C1C(=O)Nc1ccccc1F (single isomer, unassigned)               High
2  O=C1NCC(c2cccc(Oc3ccc(F)cn3)c2)C1C(=O)Nc1cccc(F)c1F (single isomer, unassigned)               High
3  O=C1NCC(c2cccc(OCc3ccccc3)c2)C1C(=O)Nc1ccccc1Cl (stereo not shown)                Low

Band for the recorded Plant response rating, Barnyardgrass of O=C1NCC(c2cccc(Oc3ncc(Cl)cn3)c2)C1C(=O)Nc1cccc(F)c1F (stereo not shown) ?
Low

Kindly identify the class of O=C1NCC(c2cccc(Oc3ccc(C(F)(F)F)cn3)c2)C1C(=O)Nc1ccccc1F (single isomer, unassigned) .
High

Place this compound in its band: O=C1NCC(c2cccc(Oc3ccc(C(F)(F)F)cn3)c2)C1C(=O)Nc1cccc(F)c1F (single isomer, unassigned)
High
